- ASSAY_TEXT: yeast display, Sf9 membrane polyspecificity reagent, FACS + sequencing; frameworks hold sequencing errors
ASSAY_READOUT: polyreactivity (PSR sort gate)

Input line: Consider the sequence QVQLVESGGGLVQAGGSLRLSCAASGIIFDDNAMGGYRQAPGKERELVAAITYSGGSTYYADSVKGRFTISRDKAKNTVYLQMNSLKPEDTAVYYCAADNRPIVGSYYYWGQGTQVTVSS and give its measured polyreactivity (PSR sort gate).
Output line: low polyreactivity

Input line: Which polyreactivity (PSR sort gate) reading was recorded for the sequence QVQLVESGGGLVQAGGSLRLSCAASGLIFQVYDMGWYRQAPGKERELVAAISSGSNTNYADSVKGRFTISRDNAKNTVYLQMNSRKPEDTAVYYCAASWGYGALTPDMGYWGQGTQVTVSS ?
Output line: low polyreactivity

Input line: Which polyreactivity (PSR sort gate) value belongs to QVQLVESGGGLVQAGGSLRLSCAASGRTFASYAMGWYRQAPGKERQLVAAITRGGNTNYADSVKGRFTISRDNAKNTVYLQMNSLNPEDTAVYYCATEGFVYSWLWEFEYWGQGTQVTVSS ?
Output line: low polyreactivity

Input line: For the sequence shown here, QVQLVESGGGLDQARGSLRLSCAASGRTFRYYAMGWYRQAPWKERELVAAISSRGTRTYYADSVKGRFTISRDNAKNTVYLQMNSLKPEDTAVYYCATRYYQELSYDYWGQGTQVIVSS , give the reported polyreactivity (PSR sort gate).
Output line: high polyreactivity

Input line: What value of polyreactivity (PSR sort gate) has been recorded for this entry: QVQLVESGGGLVQAGGSLRLSCAASGFTFYRNAMGWYRQPPGKERELVAAIDFSGSSTYYADSVKGRFTISRDNAKNTVYLQMNSLKPEDTAVYDCAAELGYAGYWYDYWGQGTQVTVSS
Output line: high polyreactivity

More entries:
Input line: Can you look up the measured polyreactivity (PSR sort gate) of QVQLVESGGGLVQAGGSLRLSCAASGRTFANNAMGWYRQAPGKERELVAAISNGDSTYADSVKGRFTISRDNAKNTVYLQMNSLKPEDTAVYYWATRTKEDYTGDYWGQGTQVTVSS for me?
Output line: low polyreactivity

Input line: Sample QVQLVESGGGLVQAGGSLRLSCAASGSIFYYYAMGWYRQAPGKERELVAAISSTGGSTYYADSVKGRFTISRDNAKNTVYLQMNSLKPEDTAVYYCAAYHYGSNVFYFDYWGQGTQVTVSS — what was its polyreactivity (PSR sort gate)?
Output line: low polyreactivity

Input line: # polyreactivity (PSR sort gate) lookup, item QVQLVETGGGLVQAGGSLRLSCAASGSIFYGYAMGWYSQSHGQEREFVAAITFSATSTYYADSVKGRFTISRDNAKNPVYLQMNSLKPEDTAVYYCAAVIGDWQYQYYYWGQGTLVTVSS
Output line: low polyreactivity

Input line: Fill blank: measured polyreactivity (PSR sort gate) of the sequence QVQLVESGGGLVHAGGSLRLSCAASGITFYLYTMGWYRQAPGKERELVATITSGASTSYADSVKGRFTISRDNAKNTFYLQMNSLNPEDTAVYYCAARRTRVTGRYSVYAFDYWGQGTQVTVSS is ____.
Output line: low polyreactivity

Input line: Quick check: polyreactivity (PSR sort gate) of QVQLVESGGGLVQAGGSLRLSCAASGSIFYTYVMGWYRQAPRKERELVAAITRAGNTYYADSVKGRFTISRDNAKKTVYLQMNILKPEDTAVYYCAAGRYKPFTYHFDYWGQGTQVTVSS ?
Output line: high polyreactivity

Input line: Given QVQLVESGGGLVQAGGSLRLSCAASGSTFGYYAMGWYRQAPGKERELVAAISWRGGSTYYADSVKGRFTISRDNAKNTVYLQMNSLKPEDTAVYYCAAAIFITGYGSYGYWGQGTQVTVSS , state its recorded polyreactivity (PSR sort gate).
Output line: low polyreactivity

###

- ASSAY_TEXT: yeast display, Sf9 membrane polyspecificity reagent, FACS + sequencing; frameworks hold sequencing errors
ASSAY_READOUT: polyreactivity (PSR sort gate)

Please review the entries below; each comes with its answer.
Input line: Give its polyreactivity (PSR sort gate) value. Item: QVQLVESGGGLVQAGGSLRLSCAASGRIVVGYVMGWYRQSPGKERELVADIRSRGDSTYYADSVKGRFTISRDNAKNTVYLQMNSLKPEDTAVYYCNVLGYSYWGQGTQVTVSS
Output line: high polyreactivity

Input line: So what's the measured polyreactivity (PSR sort gate) for this one? QVQLVESGGGLVQAGGSLRLSCAASGRTLRIYAMGWYRPAPGNERELVAAITGSGGSTDYADSVKGRFTISRDNAKNTVYLQMNILKPEDTAVYYCNAGKTIDYRDGVGYDHWGQGTQVTVSS
Output line: low polyreactivity

Input line: # lookup: polyreactivity (PSR sort gate) of QVQLVESGGGLVQAGGSLRLSCAASGRILVLNAMGWYRQAPGKERELVADITSGGSTYYADSVKGRFTISRDNAKNTVYLQMNSLKPEDTAVYYCAADLPYSLDYRSEDDYWGQGTQVTVSS
Output line: low polyreactivity

Input line: Give the measured polyreactivity (PSR sort gate) of QVQLVESGGGLVQAGGSLRLSCAASGRTFRPNVMGWYRQAPGKERELVAAISNGGRTYYADSVKGRFTISRDNAKNTVFLQMNCLKAEYTAVYYCNKVRSPWYDYWVQGTQVTVSS .
Output line: high polyreactivity

Input line: Give the measured polyreactivity (PSR sort gate) of QVQLVESGGGLVQAGGSLRLSCAASGNIFGLNAMGWYTQAPGKEREFVAAITKTGGSTYYADSVKGRFTISRDNAKNTVYLQMNSLKPEDTAVYYCAARGLPRGYPYEYGYWGQVTQVTVSS .
Output line: high polyreactivity

Input line: Record request: polyreactivity (PSR sort gate) value, item QVQLVESGGGIVQAGGSIRLSCAASGYTFAKYAMGWYRQAPGKERELVAAITFSDTSTYYADSVKGRFTISRDNAKNTVYLQMNSLKPEDTAVYYCAVVGPYYSRFGGRYYYWGQGTQVTVSS
Output line: low polyreactivity

Input line: Given the sequence QVQLVESGGGLDQAGSSLSLSCDSSGRIFYGYAMGWYRQEPGKERELVAAISWRGGRTYYADSVKGRFTISRDNAKNTVYLQMNRLIPEDTAVYYCNKDFPPQGKLLNMYYWGQGTQVTLSS , what is its reported polyreactivity (PSR sort gate)?
Output line: high polyreactivity

Input line: Fill in the blank: the reported polyreactivity (PSR sort gate) of QVQLVESGGGLVQAGGSLRLSCAASGSIFALYTMGWYRQAPWKERELVAGIRTGRSTNYADSVKGRFTISRDNAKNTVYLQMNSLKPEDTAVYYDYWGQGTQVTVSS is ____.
Output line: low polyreactivity

New cases:
Input line: Give its polyreactivity (PSR sort gate) value. Item: QVHLVESGGGLVQAGGSLRLSCAASGRIFQRNVMGWYRQAPGKERELVASITGGGTTNYADSVKGRFTISRDNAKNTVYLQMNSLKPEDTAVYYCAKGYGASNDPGYVRKRYGYWGQGTQVTVSS
Output line: low polyreactivity

Input line: Can you look up the measured polyreactivity (PSR sort gate) of QVKLVESGAGLVQAGGSLRLSCAASGITFYWYAIGWYRPAPGKEMELVADITSSGSSTYYADSVKGRFTISRDNAKNTVYLQMNSLKPEDTAVYYCNARPGRRSLRSRTYDYWGQGTQVTVSS for me?
Output line: high polyreactivity

###

- ASSAY_TEXT: yeast display, Sf9 membrane polyspecificity reagent, FACS + sequencing; frameworks hold sequencing errors
ASSAY_READOUT: polyreactivity (PSR sort gate)

Input line: Recorded polyreactivity (PSR sort gate) for QVQLVESGGGLVQAGGSLRLSCAASGITIFRYALGWSRQAPGKERELVAAISSSGGSTYYADSVKGRFTISRDNAKNTVYLQMNSLKPEDTAVYYCAAAHGYRYYWGQGTQVTVSS , please?
Output line: high polyreactivity

Input line: Consider the sequence QVQLVESGGGLVQAGGNLLLSCAASGFNFVDYAMGWSRQAPGKERELVASIDRSDGSTYYADSVKGRFTFSRDNAKNTVYLLMNSLKPEDTAVYYCAAADQLYSISTGDYWGQGTQVTVSL and give its measured polyreactivity (PSR sort gate).
Output line: low polyreactivity

Input line: Tell me the measured polyreactivity (PSR sort gate) of QVQLVESGGGLVQAGCSLRITCAASGYTFYDYAMGWYRQAPRKERELVAAISSSGGSTYYAHSVKGRFTISRDTAKNTVYLQMISLKPEDTAVYYCDVRARRWRYNYWGQGTQVTVSS , please.
Output line: high polyreactivity

Input line: // query polyreactivity (PSR sort gate) value for entry QVQLVESGGGLVQAGGSLRLSCAASGSIFIWNAMGWYRQAPGKERELVAAISFSGGSTYYADSVKGRFTISRDNAKNTVYLQMNSLKPEDTAVYYCAADSFSGRYYWWEYDYWGQGTQVTVSS
Output line: low polyreactivity

More entries:
Input line: Returns the measured polyreactivity (PSR sort gate) for the input sequence. Input: QVQLVESGGGLVQAGCTLRISCAPSGSIFVYNDMGWSRQAPGKERELVASISNGDNTNYADSVKGRFTISRDNAKNTVYLQMNSLKPEDTAVYYCAADGYIGSVVAYGERDYWGQGTQVTVSS
Output line: low polyreactivity
